Protocol Summary: Solubility
Format: physicochemical
Conditions Used: water
Where a name gives a salt, the structure may show the parent alone.

# Compound, solubility in water
records = [
    ("CC(=O)COc1ccc(-c2cnn(C)c(=O)n2)cc1 [Example 9]", "insoluble"),
    ("Cc1ccc(C2C=NN(C(c3ccccc3)C(O)c3ccccc3)C(=O)N2)cc1 (stereo not shown) [Example 29]", "insoluble"),
    ("COc1ccc(-c2cnn(CC(=O)c3ccc(Cl)cc3Cl)c(=O)n2)cc1 [Example 39]", "Insoluble"),
    ("COc1ccc(-c2cnn(C(C(=O)c3ccccc3)c3ccccc3)c(=O)n2)cc1 (stereo not shown) [Example 34]", "insoluble"),
    ("COc1ccc(-c2cnn(C(C)C(C)=O)c(=O)n2)cc1 (stereo not shown) [Example 4]", "insoluble"),
    ("CC(=O)Cn1ncc(-c2ccccc2)nc1=O [Example 7, 2-acetonyl 3-oxo 5-phenyl as.-triazine]", "insoluble"),
    ("Cc1ccc(-c2cnn(CCCCN3CCN(c4cccc(Cl)c4)CC3)c(=O)n2)cc1 [Example 13]", "insoluble"),
    ("COc1ccc(-c2cnn(C(c3ccccc3)c3ccccc3)c(=O)n2)cc1 [Example 30]", "insoluble"),
    ("COc1ccc(-c2cnn(C(CCO)C(=O)O)c(=O)n2)cc1 (stereo not shown) [Example 18]", "insoluble"),
    ("CCC(=O)Cn1ncc(-c2ccc(OC)cc2)nc1=O [Example 41]", "Insoluble"),
    ("CC(=O)Cn1ncc(-c2ccc(C)cc2)nc1=O [Example 6]", "insoluble"),
    ("CC(C)C(=O)Cn1ncc(-c2ccccc2)nc1=O [Example 22]", "insoluble"),
    ("CC(=O)Cn1ncc(-c2cccs2)nc1=O [Example 26]", "insoluble"),
    ("Cc1ccc(-c2cnn(C3CCOC3=O)c(=O)n2)cc1 (stereo not shown) [Example 20]", "insoluble"),
    ("CCOC(=O)CCCn1ncc(-c2ccc(C)cc2)nc1=O [Example 35]", "insoluble"),
    ("COc1ccc(-c2cnn(CC(=O)c3ccc(C)cc3)c(=O)n2)cc1 [Example 38]", "Insoluble"),
    ("CCOC(=O)CC(C(=O)OCC)n1ncc(-c2ccc(OC)cc2)nc1=O (stereo not shown) [Example 27]", "insoluble"),
    ("COc1ccc(-c2cnn(C3CCOC3=O)c(=O)n2)cc1 (stereo not shown) [Example 21]", "insoluble"),
    ("COc1ccc(-c2cnn(CCCCCN3CCC(O)CC3)c(=O)n2)cc1 [Example 28]", "insoluble"),
    ("COc1ccc(C(=O)Cn2ncc(-c3ccc(OC)cc3)nc2=O)cc1 [Example 40]", "Insoluble"),
    ("Cc1ccc(-c2cnn(C(CCO)C(=O)O)c(=O)n2)cc1 (stereo not shown) [Example 19]", "insoluble"),
    ("CC(=O)Cn1ncc(-c2ccc(OC3CCOC3=O)cc2)nc1=O (stereo not shown) [Example 3]", "Insoluble"),
    ("Cc1ccc(-c2cnn(CCCN3CCN(c4cccc(Cl)c4)CC3)c(=O)n2)cc1 [Example 14, hydrochloride]", "insoluble"),
    ("Cc1ccc(-c2cnn(C(C(=O)c3ccccc3)c3ccccc3)c(=O)n2)cc1 (stereo not shown) [Example 36]", "insoluble"),
    ("COc1ccc(-c2cnn(CCN3CCN(c4cccc(C(F)(F)F)c4)CC3)c(=O)n2)cc1 [Example 16]", "insoluble"),
    ("COc1ccc(-c2cnn(CC(=O)C(C)C)c(=O)n2)cc1 [Example 5]", "Insoluble"),
    ("COc1ccc(-c2cnn(CC(C)=O)c(=O)n2)c(OC)c1 [Example 25]", "insoluble"),
]

Values from patent US4851411A
